biological target: HIV-1 JR-CSF Env (gp160), on transfected 293/293T cells or on JR-CSF pseudovirus (HIV-1 isolate JR-CSF) (UniProt P20871); assay: cell-based or functional assay
Reported IC50 (ug/ml), pseudovirus neutralisation, TZM-bl assay values follow for various binders
observed_property: IC50 (ug/ml), pseudovirus neutralisation, TZM-bl assay (µg/mL)

1489_I13 (PG16) antibody, sister clone of 1443_C16 (antibody, V domains shown) VH: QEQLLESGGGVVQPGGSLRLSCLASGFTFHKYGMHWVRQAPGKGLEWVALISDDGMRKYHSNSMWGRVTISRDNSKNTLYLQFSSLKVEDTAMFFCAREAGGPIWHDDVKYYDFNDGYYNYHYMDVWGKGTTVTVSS VL: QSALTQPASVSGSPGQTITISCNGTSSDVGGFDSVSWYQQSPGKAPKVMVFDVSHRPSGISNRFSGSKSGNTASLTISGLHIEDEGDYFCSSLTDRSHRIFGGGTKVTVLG ... 0.002
1469_M23 (PG16) antibody, sister clone of 1443_C16 (antibody, V domains shown) VH: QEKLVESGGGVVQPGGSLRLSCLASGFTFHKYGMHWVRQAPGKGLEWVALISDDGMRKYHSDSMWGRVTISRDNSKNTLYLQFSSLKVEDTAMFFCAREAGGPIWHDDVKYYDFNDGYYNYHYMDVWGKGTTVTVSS VL: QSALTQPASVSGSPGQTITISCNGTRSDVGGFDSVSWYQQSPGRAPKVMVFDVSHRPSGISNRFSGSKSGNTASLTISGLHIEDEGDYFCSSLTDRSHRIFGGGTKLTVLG ... 0.002
1503_H05 (PG16) antibody, sister clone of 1443_C16 (antibody, V domains shown) VH: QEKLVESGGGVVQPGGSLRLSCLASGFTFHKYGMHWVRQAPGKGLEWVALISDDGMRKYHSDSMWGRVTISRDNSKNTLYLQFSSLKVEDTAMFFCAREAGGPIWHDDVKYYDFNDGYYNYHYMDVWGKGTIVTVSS VL: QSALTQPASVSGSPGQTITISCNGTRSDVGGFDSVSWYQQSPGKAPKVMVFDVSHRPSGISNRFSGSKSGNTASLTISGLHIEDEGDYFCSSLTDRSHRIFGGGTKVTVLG ... 0.001
1456_A12 (PG16) antibody, sister clone of 1443_C16 (antibody, V domains shown) VH: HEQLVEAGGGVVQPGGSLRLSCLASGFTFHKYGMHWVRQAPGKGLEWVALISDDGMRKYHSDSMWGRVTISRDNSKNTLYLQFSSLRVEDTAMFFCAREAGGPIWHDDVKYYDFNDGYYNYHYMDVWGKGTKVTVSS VL: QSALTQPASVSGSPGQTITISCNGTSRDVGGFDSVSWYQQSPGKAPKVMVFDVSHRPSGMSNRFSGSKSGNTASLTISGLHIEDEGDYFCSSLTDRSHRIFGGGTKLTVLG ... 0.001
